target: human mAChR M4 (Homo sapiens); construct: expressed in transfected cells; host or cells: CHO-K1 (ATCC), stably co-expressing chimeric G protein Gqi5; test: mAChR M4 cell-based functional assay (calcium mobilization, EC80 acetylcholine), human M4; conditions: Table 10
Sequence (P08173 whole entry): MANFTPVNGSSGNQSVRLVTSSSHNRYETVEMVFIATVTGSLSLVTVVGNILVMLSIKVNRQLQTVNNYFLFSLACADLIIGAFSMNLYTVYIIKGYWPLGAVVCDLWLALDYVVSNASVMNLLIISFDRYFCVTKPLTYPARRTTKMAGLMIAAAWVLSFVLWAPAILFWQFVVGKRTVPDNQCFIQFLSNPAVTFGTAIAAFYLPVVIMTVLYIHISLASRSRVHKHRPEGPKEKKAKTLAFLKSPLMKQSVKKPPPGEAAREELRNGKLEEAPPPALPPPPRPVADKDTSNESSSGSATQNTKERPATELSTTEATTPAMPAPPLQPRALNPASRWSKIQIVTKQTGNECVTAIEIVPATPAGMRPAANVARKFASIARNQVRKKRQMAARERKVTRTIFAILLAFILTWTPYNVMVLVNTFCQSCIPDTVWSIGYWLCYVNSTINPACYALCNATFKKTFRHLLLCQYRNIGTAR
Would you mind labelling by Human M4 Emin? At or over 6% is y, under is n.

molecule	class.name
Fc1ccc(Cl)c(-c2ccc(N[C@H]3C[C@@H]4CN(Cc5cccc6c5OCO6)C[C@@H]4C3)nn2)c1 [Compound 167]	n

Now take the following molecule into account.
## Task Threshold query (Human M4 Emin >= 6%) on CC(=O)Nc1ccc(-c2ccc(O[C@H]3C[C@@H]4CN(Cc5ccc(F)cc5)C[C@@H]4C3)nn2)cc1 [Compound 131]
## Result n
